- tested-system: ZTNF4 (BLyS/BAFF) (human)
- Sequence (chain, as listed by the source): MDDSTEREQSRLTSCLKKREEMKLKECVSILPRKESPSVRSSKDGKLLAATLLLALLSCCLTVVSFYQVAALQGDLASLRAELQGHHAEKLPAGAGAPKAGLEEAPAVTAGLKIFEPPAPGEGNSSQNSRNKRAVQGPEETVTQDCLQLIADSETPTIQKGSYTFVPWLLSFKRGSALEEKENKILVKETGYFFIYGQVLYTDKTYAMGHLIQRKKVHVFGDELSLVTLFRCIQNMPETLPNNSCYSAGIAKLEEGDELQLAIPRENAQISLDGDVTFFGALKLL
- test-details: other, solution radioligand binding with precipitation
Readings of pKd for the listed binders
pKd field: float, defined as -log10 of concentration (mol/L).

As a guide, the following entries are already answered.
>>> val("TACI (d1-29)-Fc5 (protein) MDAMKRGLCCVLLLCGAVFVSLSQEIHAELRRFRRAMRSCPEEQYWDPLLGTCMSCKTICNHQSQRTCAAFCRSLSCRKEQGKFYDHLLRDCISCASICGQHPKQCAYFCENKLRSPVNLPPELRRQRSGEVENNSDNSGRYQGLEHRGSEASPALPGLKEPKSSDKTHTCPPCPAPEAEGAPSVFLFPPKPKDTLMISRTPEVTCVVVDVSHEDPEVKFNWYVDGVEVHNAKTKPREEQYNSTYRVVSVLTVLHQDWLNGKEYKCKVSNKALPSSIEKTISKAKGQPREPQVYTLPPSRDELTKNQVSLTCLVKGFYPSDIAVEWESNGQPENNYKTTPPVLDSDGSFFLYSKLTVDKSRWQQGNVFSCSVMHEALHNHYTQKSLSLSPGK")
9.87
>>> val("TACI (d1-29, d107-154)-Fc5 (protein) MDAMKRGLCCVLLLCGAVFVSLSQEIHAELRRFRRAMRSCPEEQYWDPLLGTCMSCKTICNHQSQRTCAAFCRSLSCRKEQGKFYDHLLRDCISCASICGQHPKQCAYFCENEPKSSDKTHTCPPCPAPEAEGAPSVFLFPPKPKDTLMISRTPEVTCVVVDVSHEDPEVKFNWYVDGVEVHNAKTKPREEQYNSTYRVVSVLTVLHQDWLNGKEYKCKVSNKALPSSIEKTISKAKGQPREPQVYTLPPSRDELTKNQVSLTCLVKGFYPSDIAVEWESNGQPENNYKTTPPVLDSDGSFFLYSKLTVDKSRWQQGNVFSCSVMHEALHNHYTQKSLSLSPGK")
9.92

Item: TACI (d1-29, d120-154)-Fc5 (protein) MDAMKRGLCCVLLLCGAVFVSLSQEIHAELRRFRRAMRSCPEEQYWDPLLGTCMSCKTICNHQSQRTCAAFCRSLSCRKEQGKFYDHLLRDCISCASICGQHPKQCAYFCENKLRSPVNLPPELREPKSSDKTHTCPPCPAPEAEGAPSVFLFPPKPKDTLMISRTPEVTCVVVDVSHEDPEVKFNWYVDGVEVHNAKTKPREEQYNSTYRVVSVLTVLHQDWLNGKEYKCKVSNKALPSSIEKTISKAKGQPREPQVYTLPPSRDELTKNQVSLTCLVKGFYPSDIAVEWESNGQPENNYKTTPPVLDSDGSFFLYSKLTVDKSRWQQGNVFSCSVMHEALHNHYTQKSLSLSPGK | pKd: 10.04
